Where these numbers come from: patent US20240140953A1

tested on: MV4-11 (MLL-AF4); test: LTP assay, CellTiterGlo, T4-T14 (Example 103), MV4-11; assay type: cell-based, human; details: Homo sapiens, MV4-11, MV4-11 (MLL-AF4), T14; read-out: IC50 T14
measurement_label: IC50 (nM)

a: Cn1nc(-c2cccnc2)cc1CC(=O)Nc1ccc(-c2cc3c(N4CCOCC4)ncnc3[nH]2)cc1 [Compound 11]
b: O=C(Nc1ccc(-c2nc3c(N4CCOCC4)nccc3[nH]2)cc1)Nc1cc(-c2cccnc2)n[nH]1 [Compound 19]
c: Cc1ccc(-c2cc(CC(=O)Nc3ccc(-c4nc5c(N6CCOCC6)nccc5[nH]4)cc3)[nH]n2)cn1 [Compound 32]
// sort entries: IC50, high to low Labels, ranked as asked.
c, a, b
(c: 2690 nM, a: 310 nM, b: 80 nM)
